Hi there, I'd appreciate the recorded inhibition of growth at 50 µg/mL for every entry that follows.
System: Plasmodium falciparum
procedureSummary: Antiplasmodial activity against chloroquine-resistant Plasmodium falciparum FcB1/Columbia infected in human erythrocytes assessed as parasite growth inhibition at 50 ug/ml after 24 hrs by [3H]-hypoxanthine incorporation assay relative to control
Type: functional
appliedConditions: read-out: GI
Give bare numbers, in %.

Consider the following illustrative entries.
INSERT INTO assay_data (compoundstructurestring, targetentity, readoutlabel, measurementunit, observed) VALUES
  ('CCOc1ccc(C(=O)C2=C(O)[C@]3(CC=C(C)C)C[C@H](CC=C(C)C)[C@@](C)(CCC=C(C)C)[C@](CC=C(C)C)(C2=O)C3=O)cc1O', 'Plasmodium falciparum', 'inhibition of growth at 50 µg/mL', '%', 99.7),
  ('COc1ccc(C(=O)C2=C(O)[C@]3(CC=C(C)C)C[C@H](CC=C(C)C)[C@@](C)(CCC=C(C)C)[C@](CC=C(C)C)(C2=O)C3=O)cc1OC', 'Plasmodium falciparum', 'inhibition of growth at 50 µg/mL', '%', 99.3),
  ('CC(C)=CCC[C@]1(C)[C@@H](CC=C(C)C)C[C@]2(CC=C(C)C)C(=O)[C@@]1(CC=C(C)C)C(=O)C(C(=O)c1ccc(OCc3ccccc3)c(OCc3ccccc3)c1)=C2O', 'Plasmodium falciparum', 'inhibition of growth at 50 µg/mL', '%', 99.1),
  ('COc1ccc([N+](=O)[O-])cc1COc1ccc(C(=O)C2=C(O)[C@]3(CC=C(C)C)C[C@H](CC=C(C)C)[C@@](C)(CCC=C(C)C)[C@](CC=C(C)C)(C2=O)C3=O)cc1O', 'Plasmodium falciparum', 'inhibition of growth at 50 µg/mL', '%', 97.4),
  ('CC(C)=CCC[C@]1(C)[C@@H](CC=C(C)C)C[C@]2(CC=C(C)C)C(=O)[C@@]1(CC=C(C)C)C(=O)C(C(=O)c1ccc(OC(C)C)c(O)c1)=C2O', 'Plasmodium falciparum', 'inhibition of growth at 50 µg/mL', '%', 99.8),
  ('CCCC(=O)Oc1ccc(C(=O)C2=C(O)[C@]3(CC=C(C)C)C[C@H](CC=C(C)C)[C@@](C)(CCC=C(C)C)[C@](CC=C(C)C)(C2=O)C3=O)cc1OC(=O)CCC', 'Plasmodium falciparum', 'inhibition of growth at 50 µg/mL', '%', 99.7);

For each of the compounds below, note its inhibition of growth at 50 µg/mL.
1. CC(C)=CCC[C@]1(C)[C@@H](CC=C(C)C)C[C@]2(CC=C(C)C)C(=O)[C@@]1(CC=C(C)C)C(=O)C(C(=O)c1ccc(OC(=O)C=C(C)C)c(OC(=O)C=C(C)C)c1)=C2O
2. COc1ccc([N+](=O)[O-])cc1COc1ccc(C(=O)C2=C(O)[C@]3(CC=C(C)C)C[C@H](CC=C(C)C)[C@@](C)(CCC=C(C)C)[C@](CC=C(C)C)(C2=O)C3=O)cc1OCc1cc([N+](=O)[O-])ccc1OC
3. COCOc1ccc(C(=O)C2=C(O)[C@]3(CC=C(C)C)C[C@H](CC=C(C)C)[C@@](C)(CCC=C(C)C)[C@](CC=C(C)C)(C2=O)C3=O)cc1OCOC
4. CC(C)=CCC[C@]1(C)[C@@H](CC=C(C)C)C[C@]2(CC=C(C)C)C(=O)[C@@]1(CC=C(C)C)C(=O)C(C(=O)c1ccc(OCCC3OCCO3)c(OCCC3OCCO3)c1)=C2O
5. C=CCOc1ccc(C(=O)C2=C(O)[C@]3(CC=C(C)C)C[C@H](CC=C(C)C)[C@@](C)(CCC=C(C)C)[C@](CC=C(C)C)(C2=O)C3=O)cc1O
6. COCOc1ccc(C(=O)C2=C(O)[C@]3(CC=C(C)C)C[C@H](CC=C(C)C)[C@@](C)(CCC=C(C)C)[C@](CC=C(C)C)(C2=O)C3=O)cc1O

94.9
79.1
99.5
99.6
99.5
99.6
